molecular target: VIM-2 (Pseudomonas aeruginosa); assay: Single dose enzymatic inhibition assay against VIM2 (nitrocefin hydrolysis); assay type: biochemical, P. aeruginosa; details: 50 μM compound, 5 nM VIM-2, 10 μM nitrocefin, 30 mins
READOUT_KIND: % Inhibition at 50 μM

* O=C(O)c1cccc(=S)n1O [Compound 3] | 98%

Give me measured % Inhibition at 50 μM, please, for this compound: O=C(CCCCCCC(=O)Nc1ccccc1)NO [SAHA] 29%

Give me measured % Inhibition at 50 μM, please, for this compound: O=C(N[C@@H](C(=O)O)c1ccccc1)c1cccc(=S)n1O [Compound 5] 34%

Give me measured % Inhibition at 50 μM, please, for this compound: C[C@]1(Cn2ccnn2)[C@H](C(=O)O)N2C(=O)C[C@H]2S1(=O)=O [Tazobactam] 25%

Give me measured % Inhibition at 50 μM, please, for this compound: C[C@H](CS)C(=O)N1CCC[C@H]1C(=O)O [L-Captopril] 98%

Give me measured % Inhibition at 50 μM, please, for this compound: O=C(O)[C@H]1/C(=C/CO)O[C@@H]2CC(=O)N21 [Clavulanate] 15%

====

target: VIM-2 (Pseudomonas aeruginosa, UniProt Q9K2N0); experiment: Dose response enzymatic inhibition assay and inhibition constant against VIM2; format: biochemical, P. aeruginosa; conditions: read-out: IC50
READOUT_KIND: IC50 (nM)
Please respond with the number in nM and leave the unit unwritten.

Give me measured IC50, please, for this compound: `O=C(O)c1cccc(=S)n1O` 270

====

# Ki values compiled below
target: VIM-2 (Pseudomonas aeruginosa, UniProt Q9K2N0); assay: Dose response enzymatic inhibition assay and inhibition constant against VIM2; assay type: biochemical, P. aeruginosa; details: competitive-inhibition fit, nitrocefin substrate; read-out: Ki
Please state the value followed by its unit.

• O=C(O)c1cccc(=S)n1O = 0.013 µM

# next compound below
GET Ki | system: VIM-2 (Pseudomonas aeruginosa, UniProt Q9K2N0) | item: `O=C(N[C@@H](C(=O)O)c1ccccc1)c1cccc(=S)n1O` 7.5 µM

====

target: VIM-2 (Pseudomonas aeruginosa, UniProt Q9K2N0); assay: Dose response enzymatic inhibition assay and inhibition constant against VIM2; type: biochemical, P. aeruginosa; conditions: read-out: Ki
READOUT_KIND: Ki
Please state the value followed by its unit.

Give me measured Ki, please, for this compound: O=C(O)c1cccc(=S)n1O [Compound 3] 0.013 µM

====

tested on: VIM2 expressing E. coli; assay type: cell-based; conditions: Amox(+), 50 μM amoxicillin
READOUT_KIND: relative percentage growth compared to untreated cells (%)
Please respond with the number in % and leave the unit unwritten.

* O=C(CCCCCCC(=O)Nc1ccccc1)NO | 60

GET relative percentage growth compared to untreated cells | system: VIM2 expressing E. coli | item: `O=C(O)c1cccc(=S)n1O` 3.2

GET relative percentage growth compared to untreated cells | system: VIM2 expressing E. coli | item: O=C(O)[C@H]1/C(=C/CO)O[C@@H]2CC(=O)N21 [Clavulanate] 57

GET relative percentage growth compared to untreated cells | system: VIM2 expressing E. coli | item: `CC1(C)S[C@@H]2[C@H](NC(=O)[C@H](N)c3ccc(O)cc3)C(=O)N2[C@H]1C(=O)O` 77

====

target: VIM-2 (Pseudomonas aeruginosa, UniProt Q9K2N0); assay: Dose response enzymatic inhibition assay and inhibition constant against VIM2; assay type: biochemical, P. aeruginosa
READOUT_KIND: IC50 (nM)
Please respond with the number in nM and leave the unit unwritten.

Give me measured IC50, please, for this compound: On1ccccc1=S [Compound 2b, 1-Hydroxypyridine-2-thione] 908
